tested on: ICR mice; assay: Effective dose and lethal dose of intravenous administration in mice; type: in vivo; details: single bolus via tail vein, male ICR mice
Property Measured: Lethal dose (dose causing animal death) (mg/kg)
Reply numerically in mg/kg, unit not repeated.

INSERT INTO measurements (compound, measured_result) VALUES
  ('COC(=O)CC[C@@H]1N=C(c2ccccn2)c2cc(Br)ccc2-n2c(C)cnc21.O=S(=O)(O)c1ccccc1 [Remimazolam (besylate), Remimazolam, reference compound]', 280),
  ('COC(=O)CC[C@@H]1N=C(c2ccccn2)c2cc(C)c(C)cc2-n2c(C)cnc21.Cc1ccc(S(=O)(=O)O)cc1 [Compound 1-13]', 320),
  ('COC(=O)CC[C@@H]1N=C(c2ccccn2)c2cc(OC)c(OC)cc2-n2c(C)cnc21.Cc1ccc(S(=O)(=O)O)cc1 [Compound 1-10]', 300),
  ('COC(=O)CC[C@@H]1N=C(c2ccccn2)c2cc(F)c(C)cc2-n2c(C)cnc21.Cc1ccc(S(=O)(=O)O)cc1 [Compound 1-2]', 360),
  ('COC(=O)CC[C@@H]1N=C(c2ccncc2)c2cc(F)c(C)cc2-n2c(C)cnc21.Cc1ccc(S(=O)(=O)O)cc1 [Compound 1-5]', 320);

Ask | Which Lethal dose (dose causing animal death) value is on record for CCOC(=O)CC[C@@H]1N=C(c2ccccn2)c2cc(CC)c(OC)cc2-n2c(C)cnc21.Cc1ccc(S(=O)(=O)O)cc1 [Compound 1-17] ?
Reply | 360

====

tested on: ICR mice; experiment: Effective dose and lethal dose of intravenous administration in mice; format: in vivo; details: single bolus via tail vein, male ICR mice
As shown below, each of these compounds has a reported Treatment window (lethal dose/effective dose) value.
In your answer, state the number alone without any accompanying words.

INSERT INTO assay_data (compound, system_under_test, measured_result) VALUES
  ('COC(=O)CC[C@@H]1N=C(c2ccccn2)c2cc(OC)c(F)cc2-n2c(C)cnc21.Cc1ccc(S(=O)(=O)O)cc1 [Compound 1-15]', 'ICR mice', 5.3),
  ('COC(=O)CC[C@@H]1N=C(c2cccnc2)c2cc(F)c(C(F)(F)F)cc2-n2c(C)cnc21.Cc1ccc(S(=O)(=O)O)cc1 [Compound 1-14]', 'ICR mice', 3.6),
  ('COC(=O)CC[C@@H]1N=C(c2ccccn2)c2cc(F)c(C)cc2-n2c(C)cnc21.Cl [Compound 1-3]', 'ICR mice', 4.67);

Ask | Which Treatment window (lethal dose/effective dose) value is on record for COC(=O)CC[C@@H]1N=C(c2ccccn2)c2cc(C)c(C)cc2-n2c(C)cnc21.Cc1ccc(S(=O)(=O)O)cc1 [Compound 1-13] ?
Reply | 4

Ask | // next record COC(=O)CC[C@@H]1N=C(c2ccccn2)c2cc(Br)ccc2-n2c(C)cnc21.Cc1ccc(S(=O)(=O)O)cc1 [Remimazolam (p-toluenesulfonate), Remimazolam, reference compound]
Reply | 3.6

Ask | // next record COC(=O)CC[C@@H]1N=C(c2ccccn2)c2cc(F)c(C)cc2-n2c(C)cnc21.O=S(=O)(O)c1ccccc1 [Compound 1-1]
Reply | 5.3

Ask | // next record COC(=O)CC[C@@H]1N=C(c2cccnc2)c2cc(F)c(C)cc2-n2c(C)cnc21.Cc1ccc(S(=O)(=O)O)cc1 [Compound 1-4]
Reply | 3.5

Ask | // next record COC(=O)CC[C@@H]1N=C(c2ccccn2)c2cc(C(F)(F)F)c(C)cc2-n2c(C)cnc21.Cc1ccc(S(=O)(=O)O)cc1 [Compound 1-8]
Reply | 6.5

Ask | // next record CCOC(=O)CC[C@@H]1N=C(c2cccnc2)c2cc(C)c(F)cc2-n2c(C)cnc21.Cc1ccc(S(=O)(=O)O)cc1 [Compound 1-16]
Reply | 7

====

Test system: ICR mice
Assay: Disappearance of righting reflex in mice induced by drugs (single i.v. bolus)
Type: in vivo
Settings: 100 mg/kg single bolus via tail vein, male ICR mice
Method: After ICR mice (male, 18-25 g) were fast injected with the same dose (100 mg/kg) of the test drug in a single bolus via the tail vein, the incubation period and the duration of disappearance of the righting reflex in mice were recorded. Wherein, the incubation period refers to the time from the start of administration to the disappearance of the animal's righting reflex, and the duration refers to the time from the disappearance of the righting reflex to the recovery.
As shown below, each of these molecules has a reported Incubation period (time from start of administration to disappearance of righting reflex) value.
Don't forget the unit after the value.

Reference set, count: 4
INSERT INTO assay_data (molecule, system_under_test, measured_result) VALUES
  ('COC(=O)CC[C@@H]1N=C(c2ccccn2)c2cc(F)c(F)cc2-n2c(C)cnc21.Cc1ccc(S(=O)(=O)O)cc1', 'ICR mice', '0.53 min'),
  ('COC(=O)CC[C@@H]1N=C(c2ccccn2)c2cc([N+](=O)[O-])c(C)cc2-n2c(C)cnc21.Cc1ccc(S(=O)(=O)O)cc1', 'ICR mice', '0.60 min'),
  ('COC(=O)CC[C@@H]1N=C(c2ccccn2)c2cc(OC)c(OC)cc2-n2c(C)cnc21.Cc1ccc(S(=O)(=O)O)cc1', 'ICR mice', '0.48 min'),
  ('COC(=O)CC[C@@H]1N=C(c2ccncc2)c2cc(F)c(C)cc2-n2c(C)cnc21.Cc1ccc(S(=O)(=O)O)cc1', 'ICR mice', '0.40 min');

Ask | Which Incubation period (time from start of administration to disappearance of righting reflex) value is on record for COC(=O)CC[C@@H]1N=C(c2ccccn2)c2cc(OC)c(F)cc2-n2c(C)cnc21.Cc1ccc(S(=O)(=O)O)cc1 ?
Reply | 0.54 min

Ask | // next record CCOC(=O)CC[C@@H]1N=C(c2ccccn2)c2cc(CC)c(OC)cc2-n2c(C)cnc21.Cc1ccc(S(=O)(=O)O)cc1
Reply | 0.75 min

Ask | // next record CCOC(=O)CC[C@@H]1N=C(c2cccnc2)c2cc(C)c(F)cc2-n2c(C)cnc21.Cc1ccc(S(=O)(=O)O)cc1
Reply | 0.86 min

Ask | // next record COC(=O)CC[C@@H]1N=C(c2ccccn2)c2cc(Br)ccc2-n2c(C)cnc21.Cc1ccc(S(=O)(=O)O)cc1 [Remimazolam (p-toluenesulfonate), Remimazolam, reference compound]
Reply | 0.73 min

Ask | // next record COC(=O)CC[C@@H]1N=C(c2cccnc2)c2cc(F)c(C)cc2-n2c(C)cnc21.Cc1ccc(S(=O)(=O)O)cc1
Reply | 0.37 min

Ask | // next record COC(=O)CC[C@@H]1N=C(c2ccccn2)c2cc(Br)c(C)cc2-n2c(C)cnc21.Cc1ccc(S(=O)(=O)O)cc1
Reply | 0.47 min

Ask | // next record COC(=O)CC[C@@H]1N=C(c2cccnc2)c2cc(F)c(C(F)(F)F)cc2-n2c(C)cnc21.Cc1ccc(S(=O)(=O)O)cc1
Reply | 0.58 min

====

tested on: ICR mice; assay: Effective dose and lethal dose of intravenous administration in mice; assay type: in vivo; conditions: single bolus via tail vein, male ICR mice
As shown below, each of these molecules has a reported Treatment window (lethal dose/effective dose) value.
In your answer, state the number alone without any accompanying words.

Reference set, count: 3
INSERT INTO results (molecule, measured_result) VALUES
  ('COC(=O)CC[C@@H]1N=C(c2ccccn2)c2cc([N+](=O)[O-])c(C)cc2-n2c(C)cnc21.Cc1ccc(S(=O)(=O)O)cc1 [Compound 1-7]', 6),
  ('COC(=O)CC[C@@H]1N=C(c2ccccn2)c2cc(Br)c(C)cc2-n2c(C)cnc21.Cc1ccc(S(=O)(=O)O)cc1 [Compound 1-6]', 3.8),
  ('COC(=O)CC[C@@H]1N=C(c2ccccn2)c2cc(F)c(F)cc2-n2c(C)cnc21.Cc1ccc(S(=O)(=O)O)cc1 [Compound 1-11]', 4);

Next item in the queue.
Ask | Lab note: need Treatment window (lethal dose/effective dose) with ICR mice for entry COC(=O)CC[C@@H]1N=C(c2ccccn2)c2cc(OC)c(OC)cc2-n2c(C)cnc21.Cc1ccc(S(=O)(=O)O)cc1 [Compound 1-10] , please look it up.
Reply | 3.75

====

system: ICR mice; assay: Disappearance of righting reflex in mice induced by drugs (single i.v. bolus); assay type: in vivo; settings: 100 mg/kg single bolus via tail vein, male ICR mice
Property Measured: Incubation period (time from start of administration to disappearance of righting reflex) (min)
Reply numerically in min, unit not repeated.

INSERT INTO assay_data (compound, value_units, measured_result) VALUES
  ('COC(=O)CC[C@@H]1N=C(c2ccccn2)c2cc(C(F)(F)F)c(C)cc2-n2c(C)cnc21.Cc1ccc(S(=O)(=O)O)cc1', 'min', 0.55),
  ('COC(=O)CC[C@@H]1N=C(c2ccccn2)c2cc(OC)c(C)cc2-n2c(C)cnc21.Cc1ccc(S(=O)(=O)O)cc1', 'min', 0.63),
  ('COC(=O)CC[C@@H]1N=C(c2ccccn2)c2cc(Cl)c(Cl)cc2-n2c(C)cnc21.Cc1ccc(S(=O)(=O)O)cc1', 'min', 0.42),
  ('COC(=O)CC[C@@H]1N=C(c2ccccn2)c2cc(F)c(C)cc2-n2c(C)cnc21.O=S(=O)(O)c1ccccc1', 'min', 0.35),
  ('COC(=O)CC[C@@H]1N=C(c2ccccn2)c2cc(F)c(C)cc2-n2c(C)cnc21.Cc1ccc(S(=O)(=O)O)cc1', 'min', 0.52);

Ask | Which Incubation period (time from start of administration to disappearance of righting reflex) value is on record for COC(=O)CC[C@@H]1N=C(c2ccccn2)c2cc(Br)ccc2-n2c(C)cnc21.O=S(=O)(O)c1ccccc1 [Remimazolam (besylate), Remimazolam, reference compound] ?
Reply | 0.64

Ask | // next record COC(=O)CC[C@@H]1N=C(c2ccccn2)c2cc(F)c(C)cc2-n2c(C)cnc21.Cl
Reply | 0.30

# credit: patent US11919905B2
